Target: recombinant human mGluR4a receptors (Homo sapiens)
Sequence (Q14833 33-912): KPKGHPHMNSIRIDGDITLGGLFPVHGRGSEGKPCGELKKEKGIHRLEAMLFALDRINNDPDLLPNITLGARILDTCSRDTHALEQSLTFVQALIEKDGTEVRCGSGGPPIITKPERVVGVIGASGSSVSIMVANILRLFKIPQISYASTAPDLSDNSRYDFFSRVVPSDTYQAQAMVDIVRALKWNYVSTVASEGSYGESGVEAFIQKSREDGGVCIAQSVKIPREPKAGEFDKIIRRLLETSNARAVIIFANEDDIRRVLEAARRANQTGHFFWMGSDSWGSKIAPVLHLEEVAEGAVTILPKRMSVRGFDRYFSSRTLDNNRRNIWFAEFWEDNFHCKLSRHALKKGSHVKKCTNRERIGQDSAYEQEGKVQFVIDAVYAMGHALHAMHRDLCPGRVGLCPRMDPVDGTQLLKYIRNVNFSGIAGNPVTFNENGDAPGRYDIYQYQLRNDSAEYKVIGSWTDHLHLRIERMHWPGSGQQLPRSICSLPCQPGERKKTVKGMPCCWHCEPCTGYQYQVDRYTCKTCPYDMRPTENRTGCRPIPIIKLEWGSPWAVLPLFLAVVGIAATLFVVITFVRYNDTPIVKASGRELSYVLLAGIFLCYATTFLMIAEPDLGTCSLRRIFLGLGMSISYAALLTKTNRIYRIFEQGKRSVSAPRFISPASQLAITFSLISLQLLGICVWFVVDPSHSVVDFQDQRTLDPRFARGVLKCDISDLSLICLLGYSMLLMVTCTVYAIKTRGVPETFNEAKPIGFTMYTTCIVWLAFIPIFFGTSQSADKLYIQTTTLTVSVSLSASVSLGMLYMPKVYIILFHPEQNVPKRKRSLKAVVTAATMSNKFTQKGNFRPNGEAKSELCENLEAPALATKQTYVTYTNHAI
Assay: mGluR4 assay on HEK-expressing human mGluR4: fluorescent cell based Ca2+ mobilization assay (FLIPR)
Conditions: HEK-293 cells expressing hmGluR4; potentiation of EC25 glutamate; mean of at least three independent experiments in duplicate; read-out: Ca^2+ Flux (mean EC50)
pEC50: −log10 of the molar value.
assay.readout: pEC50

Task: Please report the measured pEC50 for `Fc1cccc(F)c1Oc1nc(-c2cn[nH]c2)cs1`
Result: 6.00 to 7.00

Task: Please report the measured pEC50 for `Cc1cccc(Oc2nc(-c3cn[nH]c3)cs2)n1`
Result: > 7.00

Task: Please report the measured pEC50 for `Fc1ccc(Oc2nc(-c3cn[nH]c3)cs2)nc1`
Result: 6.00 to 7.00

Task: Please report the measured pEC50 for `FC(F)(F)c1n[nH]cc1-c1nsc(Oc2ccccn2)n1`
Result: > 7.00

Task: Please report the measured pEC50 for `N#Cc1sc(Oc2cccc(Cl)n2)nc1-c1cn[nH]c1`
Result: > 7.00

Task: Please report the measured pEC50 for `Cc1n[nH]cc1-c1csc(Oc2cccc(Cl)n2)n1`
Result: > 7.00

Task: Please report the measured pEC50 for `Cc1n[nH]cc1-c1nsc(Oc2ccccc2)n1`
Result: 5.00 to 6.00
